system: HIV-1 (IIIB); test: microbe, parasite or virus in culture; type: cell-based; conditions: Human immunodeficiency virus 1, IIIB, MT4, 120 h, HIV-1 (IIIB) in MT-4 cells, 5 days incubation, Cell Titer Glo; read-out: MT4 EC50
EC50 class ranges: LOW: < 1 nM; MEDIUM: ≥ 1 nM and < 2 nM; HIGH: ≥ 2 nM

O=C(NCc1ccc(F)cc1F)c1cn2c(c(O)c1=O)C(=O)N1CCCC[C@H]2C1 [Reference Compound B] | MEDIUM
CC1=NO[C@@]2(CC[C@H](C)N3C[C@H]2n2cc(C(=O)NCc4ccc(F)cc4F)c(=O)c(O)c2C3=O)C1=O | MEDIUM

[in] Into which bin does this molecule go? `C[C@H]1CC[C@]2(CC(=O)N(Cc3ccc4ncsc4c3)O2)[C@H]2CN1C(=O)c1c(O)c(=O)c(C(=O)NCc3c(F)cc(F)cc3F)cn12`
[out] LOW

[in] Query `C[C@H]1CC[C@]2(CC(=O)N(Cc3ccccn3)O2)[C@H]2CN1C(=O)c1c(O)c(=O)c(C(=O)NCc3c(F)cc(F)cc3F)cn12` next
[out] MEDIUM

[in] // query: C[C@H]1CC[C@]2(CC(=O)N(Cc3ccc(F)cc3)O2)[C@H]2CN1C(=O)c1c(O)c(=O)c(C(=O)NCc3c(F)cc(F)cc3F)cn12 (single isomer, unassigned)
[out] MEDIUM

[in] Check `CC1=NO[C@@]2(CC[C@H](C)N3C[C@H]2n2cc(C(=O)NCc4c(F)cc(F)cc4F)c(=O)c(O)c2C3=O)[C@H]1O` too.
[out] MEDIUM

[in] Next entry: `CC1=NO[C@@]2(CC[C@H](CF)N3C[C@H]2n2cc(C(=O)NCc4c(F)cc(F)cc4F)c(=O)c(O)c2C3=O)C1`
[out] LOW

[in] Another molecule to check: `CCN1C[C@@]2(CC[C@H](C)N3C[C@H]2n2cc(C(=O)NCc4c(F)cc(F)cc4F)c(=O)c(O)c2C3=O)OC1=O`
[out] HIGH

[in] Continue with CC1=NO[C@]2(CC[C@H](C)N3C[C@H]2n2cc(C(=O)NCc4ccc(F)cc4F)c(=O)c(O)c2C3=O)C1O (stereo partly drawn)
[out] HIGH

----------
test system: HIV-1 (IIIB); experiment: microbe, parasite or virus in culture; assay type: cell-based; settings: Human immunodeficiency virus 1, IIIB, MT4, 120 h, HIV-1 (IIIB) in MT-4 cells, 5 days incubation, Cell Titer Glo; read-out: MT4 EC50
parameter measured: pEC50
Just so you know, pEC50 here is -log10 of the concentration in molar units; reply with that number alone.

CC1=NO[C@@]2(CC[C@H](C)N3C[C@H]2n2cc(C(=O)NCc4c(F)cc(F)cc4F)c(=O)c(O)c2C3=O)O1 | 9.15
C[C@H]1CC[C@]2(CC(OC3COC3)=NO2)[C@H]2CN1C(=O)c1c(O)c(=O)c(C(=O)NCc3ccc(F)cc3F)cn12 | 8.70
CC1C[C@@]2(CC[C@H](C)N3C[C@H]2n2cc(C(=O)NCc4c(F)cc(F)cc4F)c(=O)c(O)c2C3=O)OCO1 (stereo partly drawn) | 9.10
C[C@H]1CC[C@]2(CC(n3cnnc3)=NO2)[C@H]2CN1C(=O)c1c(O)c(=O)c(C(=O)NCc3c(F)cc(F)cc3F)cn12 | 8.66
COC1=NO[C@@]2(CC[C@H](C)N3C[C@H]2n2cc(C(=O)NCc4c(F)cc(F)cc4F)c(=O)c(O)c2C3=O)[C@H]1C | 9.00

--- query ---
[in] Would you mind telling me what pEC50 value was observed for COC[C@@H]1CO[C@@]2(CC[C@H](C)N3C[C@H]2n2cc(C(=O)NCc4c(F)cc(F)cc4F)c(=O)c(O)c2C3=O)O1 (single isomer, unassigned) [168 (peak 1)] ?
[out] 8.96

----------
pEC50 values, listed per item
system: HIV-1 (IIIB); assay: microbe, parasite or virus in culture; assay type: cell-based; settings: Human immunodeficiency virus 1, IIIB, MT4, 120 h, HIV-1 (IIIB) in MT-4 cells, 5 days incubation, Cell Titer Glo; read-out: MT4 EC50
Just the number, please; pEC50 means minus log10 of the concentration in mol/L.

Check out these entries, answers already filled in.
COCCOC1=NO[C@@]2(CC[C@H](C)N3C[C@H]2n2cc(C(=O)NCc4ccc(F)cc4F)c(=O)c(O)c2C3=O)C1 | 9.22
CC1=NCC2(CC[C@H](C)N3C[C@H]2n2cc(C(=O)NCc4ccc(F)cc4F)c(=O)c(O)c2C3=O)O1 (stereo partly drawn) | 8.21
C[C@H]1CC[C@]2(CC(C3CC3)=NO2)[C@H]2CN1C(=O)c1c(O)c(=O)c(C(=O)NCc3ccc(F)cc3F)cn12 | 8.62

[in] Record request: pEC50 value, item `CCC1=NO[C@@]2(CC[C@H](C)N3C[C@H]2n2cc(C(=O)NCc4c(F)cc(F)cc4F)c(=O)c(O)c2C3=O)O1`
[out] 9.15

[in] Next entry: `C[C@H]1CC[C@]2(CC(F)=NO2)[C@H]2CN1C(=O)c1c(O)c(=O)c(C(=O)NCc3c(F)cc(F)cc3F)cn12`
[out] 8.15

[in] Similarly, `C[C@H]1CC[C@@]2(COC(C)(C)O2)[C@H]2CN1C(=O)c1c(O)c(=O)c(C(=O)NCc3c(F)cc(F)cc3F)cn12` ?
[out] 8.70

----------
assay: in vitro; details: human, uninfected MT-4 cells
parameter measured: CC50 at 5 days

Example results:
COC[C@@H]1CO[C@@]2(CC[C@H](C)N3C[C@H]2n2cc(C(=O)NCc4c(F)cc(F)cc4F)c(=O)c(O)c2C3=O)O1 (single isomer, unassigned) [168 (peak 1)] | 28.9 µM
C[C@H]1CC[C@]2(CC(Cl)=NO2)[C@H]2CN1C(=O)c1c(O)c(=O)c(C(=O)NCc3c(F)cc(F)cc3F)cn12 | 9.47 µM
CC1=NO[C@@]2(CC[C@H](C)N3C[C@H]2n2cc(C(=O)NCc4ccc(F)cc4F)c(=O)c(O)c2C3=O)[C@@H]1O | 40 µM
CC1=NO[C@@]2(CC[C@H](C)N3C[C@H]2n2cc(C(=O)NCc4ccc(F)cc4F)c(=O)c(O)c2C3=O)[C@H]1F (single isomer, unassigned) [Example 27 (peak 1)] | 33.1 µM

Now for another entry.
[in] Please give the measured CC50 at 5 days for this compound: CC1=NN(c2ccccc2)C2(CC[C@H](C)N3C[C@H]2n2cc(C(=O)NCc4c(F)cc(F)cc4F)c(=O)c(O)c2C3=O)C1 (single isomer, unassigned)
[out] 22.3 µM

----------
Entries and their EC50 values follow.
test system: pLAI reporter virus; assay: microbe, parasite or virus in culture; type: cell-based, HIV; details: Human immunodeficiency virus 1, MT4, 72 h, read-out: RLUC CCM EC50
Numeric only. Scale: nM

In the examples that follow, each entry is paired with its recorded EC50.
O=C(NCc1c(F)cc(F)cc1F)c1cn2c(c(O)c1=O)C(=O)N1CCCC[C@H]2C1 [Reference Compound A] | 0.35
C[C@H]1CC[C@]2(CC(=O)N(Cc3cccc(C(F)(F)F)c3)O2)[C@H]2CN1C(=O)c1c(O)c(=O)c(C(=O)NCc3c(F)cc(F)cc3F)cn12 | 0.4

[in] Short answer please: EC50, pLAI reporter virus, entry `C[C@H]1CC[C@]2(CC(=O)N(Cc3ccc4c(cnn4C)c3)O2)[C@H]2CN1C(=O)c1c(O)c(=O)c(C(=O)NCc3c(F)cc(F)cc3F)cn12`
[out] 0.2

[in] What about this compound? `COCCOC1=NO[C@@]2(CC[C@H](C)N3C[C@H]2n2cc(C(=O)NCc4ccc(F)cc4F)c(=O)c(O)c2C3=O)C1`
[out] 0.4

[in] Another compound to look at: `CCN1O[C@@]2(CC[C@H](C)N3C[C@H]2n2cc(C(=O)NCc4c(F)cc(F)cc4F)c(=O)c(O)c2C3=O)CC1=O`
[out] 0.3

[in] Another compound: `CC1=NO[C@@]2(CC[C@H](C)N3C[C@H]2n2cc(C(=O)NCc4ccc(F)cc4F)c(=O)c(O)c2C3=O)[C@H]1C`
[out] 0.3

[in] Then what about the compound `CC1=NO[C@]2(C1)C[C@H](F)[C@H](C)N1C[C@H]2n2cc(C(=O)NCc3ccc(F)cc3F)c(=O)c(O)c2C1=O` ?
[out] 0.4

[in] Would you mind doing `C[C@H]1CC[C@]2(CC(C(F)F)=NO2)[C@H]2CN1C(=O)c1c(O)c(=O)c(C(=O)NCc3ccc(F)cc3F)cn12` as well?
[out] 0.3

[in] Next record, please: `CC(C)C1=NO[C@@]2(CC[C@H](C)N3C[C@H]2n2cc(C(=O)NCc4ccc(F)cc4F)c(=O)c(O)c2C3=O)C1`
[out] 0.5
